Can you tell me normalised viability for the items I'm about to list?
- System: CAL-85-1
- MEASUREMENT DESCRIPTION: normalised viability (% of control), CellTiter-Blue; higher = more viable cells (100 = DMSO, 0 = benzethonium chloride kill control)
- RUN PARAMETERS: incubation time: 72 h
Record the value in %, omitting the unit from your answer.

Q: Identify normalised viability associated with the molecule CO[C@@H]1[C@H](N(C)C(=O)c2ccccc2)C[C@H]2O[C@]1(C)n1c3ccccc3c3c4c(c5c6ccccc6n2c5c31)C(=O)NC4 [Midostaurin] (1 nM)
Result: 112

Q: Note down normalised viability recorded for COc1ccc(S(=O)(=O)Nc2cccnc2Nc2ccc(O)cc2)cc1 [ABT-751] (1 nM)
Result: 88.4

Q: Complete the entry with normalised viability for CCN(CC)CCCC(C)Nc1ccnc2cc(Cl)ccc12 (stereo not drawn) [Chloroquine] (0.099 nM)
Result: 87.6

###

- Test system: MFM-223
- MEASUREMENT DESCRIPTION: normalised response (% of control), CellTiter-Glo; higher = more viable cells (100 = DMSO, 0 = benzethonium chloride kill control)
- RUN PARAMETERS: incubation time: 72 h
ENDPOINT NAME: normalised response (%)
Return type: number; implicit unit %.

Q: Give recorded normalised response. C=CCn1c(=O)c2cnc(Nc3ccc(N4CCN(C)CC4)cc3)nc2n1-c1cccc(C(C)(C)O)n1 [MK1775] (10 nM)
Result: 88.8

Q: Report normalised response for CCn1c(C(=O)N(C2CC2)C2CC2)cc2c3c(ncn3C)c(Nc3cc(C)n(C)n3)nc21 (1000 nM)
Result: 95.2

Q: Read the entry CC(O)(CS(=O)(=O)c1ccc(F)cc1)C(=O)Nc1ccc(C#N)c(C(F)(F)F)c1 (stereo not drawn) [Bicalutamide] (10 nM) and write its reported normalised response.
Result: 111

###

- System: BT-549
- RUN PARAMETERS: 72 h
ENDPOINT NAME: EC50, CellTiter-Blue viability
Write the quantity with the unit trailing the number.

Q: Tell us which EC50, CellTiter-Blue viability value is on record for CC1(C)CCC(c2ccc(Cl)cc2)=C(CN2CCN(c3ccc(C(=O)NS(=O)(=O)c4ccc(N[C@H](CCN5CCOCC5)CSc5ccccc5)c(S(=O)(=O)C(F)(F)F)c4)cc3)CC2)C1
Result: 373 nM

Q: Return EC50, CellTiter-Blue viability for the following compound: Cn1cc(C2=C(c3cn(C4CCN(Cc5ccccn5)CC4)c4ccccc34)C(=O)NC2=O)c2ccccc21
Result: 857 nM

Q: Consider the compound O=C(CCCCCCC(=O)Nc1ccccc1)NO . State its measured EC50, CellTiter-Blue viability.
Result: 2860 nM

Q: Please report EC50, CellTiter-Blue viability for the following compound: CO[C@@]12[C@H](COC(N)=O)C3=C(C(=O)C(C)=C(N)C3=O)N1C[C@@H]1N[C@@H]12
Result: 2970 nM

###

- Tested on: BT-549
- MEASUREMENT DESCRIPTION: normalised response (% of control), CellTiter-Glo; higher = more viable cells (100 = DMSO, 0 = benzethonium chloride kill control)
- RUN PARAMETERS: incubation time: 72 h
ENDPOINT NAME: normalised response

Q: Answer with reported normalised response of C/C(=C\c1csc(C)n1)[C@@H]1C[C@@H]2O[C@]2(C)CCC[C@H](C)[C@H](O)[C@@H](C)C(=O)C(C)(C)[C@@H](O)CC(=O)N1 [Ixabepilone] (10 nM)
Result: 102%

Q: Please supply the value of reported normalised response for the item O=C(CCCCCCC(=O)Nc1ccccc1)NO [Vorinostat] (100 nM)
Result: 100%

Q: Give the reported value of normalised response for this record: CC(C)n1cnc2c(NCCc3ccc(O)cc3)nc(-c3csc4ccccc34)nc21 [StemRegenin 1] (100 nM)
Result: 99.2%

Q: Specify reported normalised response for the compound shown: C=CCn1c(=O)c2cnc(Nc3ccc(N4CCN(C)CC4)cc3)nc2n1-c1cccc(C(C)(C)O)n1 [MK1775] (100 nM)
Result: 91.1%

Q: Output measured normalised response for this item: CCn1c(C(=O)N(C2CC2)C2CC2)cc2c3c(ncn3C)c(Nc3cc(C)n(C)n3)nc21 (100 nM)
Result: 110%

Q: Name the recorded normalised response of the item CO[C@@]12[C@H](COC(N)=O)C3=C(C(=O)C(C)=C(N)C3=O)N1C[C@@H]1N[C@@H]12 [Mitomycin C] (100 nM) in your answer.
Result: 96.5%

Q: Please indicate normalised response recorded for CC[C@H](CO)Nc1nc(NCc2ccccc2)c2ncn(C(C)C)c2n1 [Seliciclib] (100 nM)
Result: 102%

Q: Output normalised response of CCNC(=O)c1noc(-c2cc(C(C)C)c(O)cc2O)c1-c1ccc(CN2CCOCC2)cc1 [NVP-AUY922] (10 nM)
Result: 73.2%

Q: Supply normalised response value. Item: C=CCN(/C=C1/C(=O)O[C@H](COC)[C@@]2(C)C1=C(O)C(=O)C1=C2[C@H](OC(C)=O)C[C@]2(C)C(=O)CC[C@@H]12)CC=C [Sonolisib] (100 nM)
Result: 106%

Q: Complete the entry with normalised response for Cc1cn(-c2cc(NC(=O)c3ccc(C)c(Nc4nccc(-c5cccnc5)n4)c3)cc(C(F)(F)F)c2)cn1 [Nilotinib] (100 nM)
Result: 115%

###

- System: HDQ-P1
- MEASUREMENT DESCRIPTION: drug sensitivity score (DSS), CellTiter-Glo (DSS (AUC-based score)); higher = stronger drug effect (viability inhibition or cytotoxicity); extreme values may be limits of the assay
- RUN PARAMETERS: incubation time: 72 h
// label = true if drug sensitivity score is not less than 1, otherwise false

Q: Answer whether drug sensitivity score of CC(O)(CS(=O)(=O)c1ccc(F)cc1)C(=O)Nc1ccc(C#N)c(C(F)(F)F)c1 (configuration not stated) [Bicalutamide] is greater than or equal to 1.
Result: false

Q: # check: drug sensitivity score of O=C(CCCCCCC(=O)Nc1ccccc1)NO is greater than or equal to 1
Result: true

Q: Confirm if drug sensitivity score reported for the molecule CO[C@@H]1[C@H](N(C)C(=O)c2ccccc2)C[C@H]2O[C@]1(C)n1c3ccccc3c3c4c(c5c6ccccc6n2c5c31)C(=O)NC4 is 1 or above.
Result: true

Q: Assess whether reported drug sensitivity score for O=[N+]([O-])c1ccc2c(c1)S(=O)(=O)C=C2 sits at 1 or higher.
Result: true

Q: Please tell me: is the molecule C/C(=C\c1csc(C)n1)[C@@H]1C[C@@H]2O[C@]2(C)CCC[C@H](C)[C@H](O)[C@@H](C)C(=O)C(C)(C)[C@@H](O)CC(=O)N1 [Ixabepilone] at or over 1 in terms of drug sensitivity score?
Result: false

Q: Textbook exercise: given the entry CC(C)n1cnc2c(NCCc3ccc(O)cc3)nc(-c3csc4ccccc34)nc21 , state whether its drug sensitivity score is greater than or equal to 1.
Result: true

Q: Record CC(C)(C)NC(=O)[C@H]1CC[C@H]2[C@@H]3CC[C@H]4NC(=O)C=C[C@]4(C)[C@H]3CC[C@]12C [Finasteride] ; criterion: drug sensitivity score no lower than 1. Met?
Result: false

###

- System: HCC1599
- MEASUREMENT DESCRIPTION: normalised response (% of control), CellTiter-Glo; higher = more viable cells (100 = DMSO, 0 = benzethonium chloride kill control)
- RUN PARAMETERS: incubation time: 72 h
ENDPOINT NAME: normalised response
Please make sure the unit comes right after the number.

Q: Give me measured normalised response, please, for this compound: COc1cc(Nc2c(C#N)cnc3cc(OCCCN4CCN(C)CC4)c(OC)cc23)c(Cl)cc1Cl [Bosutinib] (100 nM)
Result: 93.1%

Q: Return the recorded normalised response value; entry: CC1(C)CCC(c2ccc(Cl)cc2)=C(CN2CCN(c3ccc(C(=O)NS(=O)(=O)c4ccc(N[C@H](CCN5CCOCC5)CSc5ccccc5)c(S(=O)(=O)C(F)(F)F)c4)cc3)CC2)C1 [Navitoclax] (100 nM)
Result: 94.5%

Q: State its normalised response: CC1(COc2ccc3c(c2)ncn3-c2ccc3cccc(N4CCC(N)CC4)c3n2)COC1 [Crenolanib] (100 nM)
Result: 110%

Q: Supply recorded normalised response for CC(O)(CS(=O)(=O)c1ccc(F)cc1)C(=O)Nc1ccc(C#N)c(C(F)(F)F)c1 (stereo unspecified) [Bicalutamide] (100 nM) here.
Result: 103%

Q: In one line, give reported normalised response of the entry C=CCn1c(=O)c2cnc(Nc3ccc(N4CCN(C)CC4)cc3)nc2n1-c1cccc(C(C)(C)O)n1 [MK1775] (100 nM) .
Result: 81.2%

Q: Input CC[C@H](CO)Nc1nc(NCc2ccccc2)c2ncn(C(C)C)c2n1 [Seliciclib] (100 nM) , output reported normalised response.
Result: 110%

Q: Using known records, supply normalised response for CC(C)C[C@H](NC(=O)[C@@H](COC(C)(C)C)NC(=O)[C@H](Cc1ccc(O)cc1)NC(=O)[C@H](CO)NC(=O)[C@H](Cc1c[nH]c2ccccc12)NC(=O)[C@H](Cc1cnc[nH]1)NC(=O)[C@@H]1CCC(=O)N1)C(=O)N[C@@H](CCCNC(=N)N)C(=O)N1CCC[C@H]1C(=O)NNC(N)=O [Goserelin] (100 nM)
Result: 94.2%

Q: Specify measured normalised response for CN[C@@H](C)C(=O)N[C@H]1CN(C(=O)CC(C)C)CC[C@H]2CC[C@@H](C(=O)NC(c3ccccc3)c3ccccc3)N2C1=O [AT-406] (100 nM) .
Result: 79.1%

Q: Give the value of normalised response reported for the following: CCn1c(C(=O)N(C2CC2)C2CC2)cc2c3c(ncn3C)c(Nc3cc(C)n(C)n3)nc21 (100 nM)
Result: 93%

Q: For the compound COc1ccc(S(=O)(=O)Nc2cccnc2Nc2ccc(O)cc2)cc1 [ABT-751] (100 nM) , report normalised response.
Result: 109%

Q: Kindly indicate its recorded normalised response. Item: Cn1cc(C2=C(c3cn(C4CCN(Cc5ccccn5)CC4)c4ccccc34)C(=O)NC2=O)c2ccccc21 [Enzastaurin] (100 nM)
Result: 90.6%

Q: For the compound Cc1cn(-c2cc(NC(=O)c3ccc(C)c(Nc4nccc(-c5cccnc5)n4)c3)cc(C(F)(F)F)c2)cn1 [Nilotinib] (100 nM) , report normalised response.
Result: 106%

Q: Check the records and state normalised response for C=CCN(/C=C1/C(=O)O[C@H](COC)[C@@]2(C)C1=C(O)C(=O)C1=C2[C@H](OC(C)=O)C[C@]2(C)C(=O)CC[C@@H]12)CC=C [Sonolisib] (100 nM)
Result: 104%

Q: Item Nc1ccn([C@@H]2O[C@H](CO)[C@@H](O)C2(F)F)c(=O)n1 [Gemcitabine] (10 nM) : provide normalised response
Result: 89.5%

Q: Dear colleague, please send me the reported normalised response for CO[C@@]12[C@H](COC(N)=O)C3=C(C(=O)C(C)=C(N)C3=O)N1C[C@@H]1N[C@@H]12 [Mitomycin C] (100 nM) when you can.
Result: 95.7%

Q: Supply recorded normalised response for CCNC(=O)c1noc(-c2cc(C(C)C)c(O)cc2O)c1-c1ccc(CN2CCOCC2)cc1 [NVP-AUY922] (10 nM) here.
Result: 111%

Provenance of the data: the supplement of paper PMC4862054
